- protocol-summary: Urinary excretion study in rats after oral NS, SF or CNS (LC–MS/MS)
- Assay type: in vivo
- experimental-context: rat urine, oral NS 60 mg/kg, 24 h

compound: CC(C)=CCC[C@](C)(O[C@@H]1O[C@H](CO[C@@H]2O[C@H](CO)[C@@H](O)[C@H](O)[C@H]2O)[C@@H](O)[C@H](O)[C@H]1O)[C@H]1CC[C@]2(C)[C@@H]1[C@H](O)C[C@@H]1[C@@]3(C)CC[C@H](O[C@@H]4O[C@H](CO)[C@@H](O)[C@H](O)[C@H]4O[C@@H]4O[C@H](CO)[C@@H](O)[C@H](O)[C@H]4O)C(C)(C)[C@@H]3CC[C@]12C [ginsenoside Rb1]
unit-abbrev: µg
Excretion amount: 0.742
//
compound: CC(C)=CCC[C@](C)(O[C@@H]1O[C@H](CO)[C@@H](O)[C@H](O)[C@H]1O)[C@H]1CC[C@]2(C)[C@@H]1[C@H](O)C[C@@H]1[C@@]3(C)CC[C@H](O)C(C)(C)[C@@H]3[C@@H](O[C@@H]3O[C@H](CO)[C@@H](O)[C@H](O)[C@H]3O[C@@H]3O[C@@H](C)[C@H](O)[C@@H](O)[C@H]3O)C[C@]12C [ginsenoside Re]
unit-abbrev: µg
Excretion amount: 0.024
//
compound: CC(C)=CCC[C@](C)(O[C@@H]1O[C@H](CO)[C@@H](O)[C@H](O)[C@H]1O)[C@H]1CC[C@]2(C)[C@@H]1[C@H](O)C[C@@H]1[C@@]3(C)CC[C@H](O)C(C)(C)[C@@H]3[C@@H](O[C@@H]3O[C@H](CO)[C@@H](O)[C@H](O)[C@H]3O)C[C@]12C [ginsenoside Rg1]
unit-abbrev: µg
Excretion amount: 0.636

###

- protocol-summary: Urinary excretion study in rats after oral NS, SF or CNS (LC–MS/MS)
- Type: in vivo
- experimental-context: male, Sprague Dawley, rat, urine, oral, oral CNS 110 mg/kg, 8 h
result-type: concentration at 8 h (ng/mL)

molecule: CC(C)=CCC[C@](C)(O[C@@H]1O[C@H](CO[C@@H]2O[C@H](CO)[C@@H](O)[C@H](O)[C@H]2O)[C@@H](O)[C@H](O)[C@H]1O)[C@H]1CC[C@]2(C)[C@@H]1[C@H](O)C[C@@H]1[C@@]3(C)CC[C@H](O[C@@H]4O[C@H](CO)[C@@H](O)[C@H](O)[C@H]4O[C@@H]4O[C@H](CO)[C@@H](O)[C@H](O)[C@H]4O)C(C)(C)[C@@H]3CC[C@]12C [ginsenoside Rb1]
observed: 105

molecule: CC(C)=CCC[C@](C)(O[C@@H]1O[C@H](CO)[C@@H](O)[C@H](O)[C@H]1O)[C@H]1CC[C@]2(C)[C@@H]1[C@H](O)C[C@@H]1[C@@]3(C)CC[C@H](O)C(C)(C)[C@@H]3[C@@H](O[C@@H]3O[C@H](CO)[C@@H](O)[C@H](O)[C@H]3O[C@@H]3O[C@@H](C)[C@H](O)[C@@H](O)[C@H]3O)C[C@]12C [ginsenoside Re]
observed: 41

molecule: CC(C)=CCC[C@](C)(O[C@@H]1O[C@H](CO)[C@@H](O)[C@H](O)[C@H]1O)[C@H]1CC[C@]2(C)[C@@H]1[C@H](O)C[C@@H]1[C@@]3(C)CC[C@H](O[C@@H]4O[C@H](CO)[C@@H](O)[C@H](O)[C@H]4O[C@@H]4O[C@H](CO)[C@@H](O)[C@H](O)[C@H]4O)C(C)(C)[C@@H]3CC[C@]12C [ginsenoside Rd]
observed: 38

molecule: CC(C)=CCC[C@](C)(O[C@@H]1O[C@H](CO)[C@@H](O)[C@H](O)[C@H]1O)[C@H]1CC[C@]2(C)[C@@H]1[C@H](O)C[C@@H]1[C@@]3(C)CC[C@H](O)C(C)(C)[C@@H]3[C@@H](O[C@@H]3O[C@H](CO)[C@@H](O)[C@H](O)[C@H]3O)C[C@]12C [ginsenoside Rg1]
observed: 835

###

Item-by-item account of Excretion amount
- protocol-summary: Urinary excretion study in rats after oral NS, SF or CNS (LC–MS/MS)
- Assay type: in vivo
- experimental-context: rat urine, oral CNS 110 mg/kg, 120 h
result-type: Excretion amount (µg)

compound: CC(C)=CCC[C@](C)(O[C@@H]1O[C@H](CO[C@@H]2O[C@H](CO)[C@@H](O)[C@H](O)[C@H]2O)[C@@H](O)[C@H](O)[C@H]1O)[C@H]1CC[C@]2(C)[C@@H]1[C@H](O)C[C@@H]1[C@@]3(C)CC[C@H](O[C@@H]4O[C@H](CO)[C@@H](O)[C@H](O)[C@H]4O[C@@H]4O[C@H](CO)[C@@H](O)[C@H](O)[C@H]4O)C(C)(C)[C@@H]3CC[C@]12C [ginsenoside Rb1]
result-type: Excretion amount
unit-abbrev: µg
observed: 0.022

compound: CC(C)=CCC[C@](C)(O[C@@H]1O[C@H](CO)[C@@H](O)[C@H](O)[C@H]1O)[C@H]1CC[C@]2(C)[C@@H]1[C@H](O)C[C@@H]1[C@@]3(C)CC[C@H](O)C(C)(C)[C@@H]3[C@@H](O[C@@H]3O[C@H](CO)[C@@H](O)[C@H](O)[C@H]3O)C[C@]12C [ginsenoside Rg1]
result-type: Excretion amount
unit-abbrev: µg
observed: 0.061

compound: CC(C)=CCC[C@](C)(O[C@@H]1O[C@H](CO)[C@@H](O)[C@H](O)[C@H]1O)[C@H]1CC[C@]2(C)[C@@H]1[C@H](O)C[C@@H]1[C@@]3(C)CC[C@H](O)C(C)(C)[C@@H]3[C@@H](O[C@@H]3O[C@H](CO)[C@@H](O)[C@H](O)[C@H]3O[C@@H]3O[C@@H](C)[C@H](O)[C@@H](O)[C@H]3O)C[C@]12C [ginsenoside Re]
result-type: Excretion amount
unit-abbrev: µg
observed: 0.004

###

- protocol-summary: Fecal excretion study in rats after oral NS, SF or CNS (LC–MS/MS)
- Assay type: in vivo
- experimental-context: rat feces, oral NS 60 mg/kg, 8 h

molecule: CC(C)=CCC[C@](C)(O[C@@H]1O[C@H](CO)[C@@H](O)[C@H](O)[C@H]1O)[C@H]1CC[C@]2(C)[C@@H]1[C@H](O)C[C@@H]1[C@@]3(C)CC[C@H](O[C@@H]4O[C@H](CO)[C@@H](O)[C@H](O)[C@H]4O[C@@H]4O[C@H](CO)[C@@H](O)[C@H](O)[C@H]4O)C(C)(C)[C@@H]3CC[C@]12C [ginsenoside Rd]
Excretion amount (µg): 8.721

###

Item-by-item account of Excretion amount
- protocol-summary: Urinary excretion study in rats after oral NS, SF or CNS (LC–MS/MS)
- Assay type: in vivo
- experimental-context: rat urine, oral NS 60 mg/kg, 36 h
result-type: Excretion amount (µg)

compound: CC(C)=CCC[C@](C)(O[C@@H]1O[C@H](CO)[C@@H](O)[C@H](O)[C@H]1O)[C@H]1CC[C@]2(C)[C@@H]1[C@H](O)C[C@@H]1[C@@]3(C)CC[C@H](O[C@@H]4O[C@H](CO)[C@@H](O)[C@H](O)[C@H]4O[C@@H]4O[C@H](CO)[C@@H](O)[C@H](O)[C@H]4O)C(C)(C)[C@@H]3CC[C@]12C [ginsenoside Rd]
result-type: Excretion amount
observed: 0.041
--
compound: CC(C)=CCC[C@](C)(O[C@@H]1O[C@H](CO)[C@@H](O)[C@H](O)[C@H]1O)[C@H]1CC[C@]2(C)[C@@H]1[C@H](O)C[C@@H]1[C@@]3(C)CC[C@H](O)C(C)(C)[C@@H]3[C@@H](O[C@@H]3O[C@H](CO)[C@@H](O)[C@H](O)[C@H]3O[C@@H]3O[C@@H](C)[C@H](O)[C@@H](O)[C@H]3O)C[C@]12C [ginsenoside Re]
result-type: Excretion amount
observed: 0.044
--
compound: CC(C)=CCC[C@](C)(O[C@@H]1O[C@H](CO)[C@@H](O)[C@H](O)[C@H]1O)[C@H]1CC[C@]2(C)[C@@H]1[C@H](O)C[C@@H]1[C@@]3(C)CC[C@H](O)C(C)(C)[C@@H]3[C@@H](O[C@@H]3O[C@H](CO)[C@@H](O)[C@H](O)[C@H]3O)C[C@]12C [ginsenoside Rg1]
result-type: Excretion amount
observed: 0.402
--
compound: CC(C)=CCC[C@](C)(O[C@@H]1O[C@H](CO[C@@H]2O[C@H](CO)[C@@H](O)[C@H](O)[C@H]2O)[C@@H](O)[C@H](O)[C@H]1O)[C@H]1CC[C@]2(C)[C@@H]1[C@H](O)C[C@@H]1[C@@]3(C)CC[C@H](O[C@@H]4O[C@H](CO)[C@@H](O)[C@H](O)[C@H]4O[C@@H]4O[C@H](CO)[C@@H](O)[C@H](O)[C@H]4O)C(C)(C)[C@@H]3CC[C@]12C [ginsenoside Rb1]
result-type: Excretion amount
observed: 0.394
